target: Lysosomal alpha-glucosidase (Rattus norvegicus) (UniProt Q6P7A9); test: Inhibition of alpha-glucosidase activity of maltase in rat small intestinal brush border membrane fraction using maltose as substrate at 400 uM after 30 mins
Sequence (Q6P7A9 whole entry): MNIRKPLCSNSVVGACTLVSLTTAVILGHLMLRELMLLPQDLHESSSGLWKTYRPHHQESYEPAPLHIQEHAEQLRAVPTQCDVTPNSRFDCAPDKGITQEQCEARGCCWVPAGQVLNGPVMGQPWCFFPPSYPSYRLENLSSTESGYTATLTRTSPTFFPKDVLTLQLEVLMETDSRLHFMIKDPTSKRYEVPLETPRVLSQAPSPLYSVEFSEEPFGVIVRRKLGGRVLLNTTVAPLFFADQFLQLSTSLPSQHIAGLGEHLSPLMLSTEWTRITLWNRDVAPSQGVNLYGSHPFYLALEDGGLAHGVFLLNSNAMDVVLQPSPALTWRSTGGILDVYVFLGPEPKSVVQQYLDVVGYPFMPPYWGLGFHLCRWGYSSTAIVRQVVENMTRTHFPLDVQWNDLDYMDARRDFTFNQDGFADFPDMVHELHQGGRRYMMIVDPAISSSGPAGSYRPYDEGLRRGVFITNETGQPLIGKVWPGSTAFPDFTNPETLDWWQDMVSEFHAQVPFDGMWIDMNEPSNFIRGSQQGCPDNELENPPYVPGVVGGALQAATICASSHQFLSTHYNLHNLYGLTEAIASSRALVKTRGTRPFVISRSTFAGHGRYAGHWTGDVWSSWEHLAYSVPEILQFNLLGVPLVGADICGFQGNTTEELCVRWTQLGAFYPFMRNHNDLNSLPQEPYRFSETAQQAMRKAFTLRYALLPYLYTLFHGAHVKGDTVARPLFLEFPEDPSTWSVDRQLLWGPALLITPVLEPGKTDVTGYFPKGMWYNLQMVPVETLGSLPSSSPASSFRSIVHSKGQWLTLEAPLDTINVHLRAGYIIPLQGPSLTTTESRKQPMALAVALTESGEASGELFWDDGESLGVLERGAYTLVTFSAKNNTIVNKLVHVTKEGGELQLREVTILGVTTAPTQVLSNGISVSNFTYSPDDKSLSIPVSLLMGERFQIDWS
READOUT TYPE: inhibition (%)

CC(=O)[C@H]1OC(=O)c2cc(O)cc(O)c2[C@@H]1c1ccc(O)c(O)c1 [PHAYOMPHENOL B2]	40.4

a: OC[C@H]1O[C@@H](c2c(O)cc(O)cc2/C=C/c2ccc(O)cc2)[C@H](O)[C@@H](O)[C@@H]1O
b: C[C@H](O)[C@H]1OC(=O)c2cc(O)cc(O)c2[C@@H]1c1ccc(O)cc1
Which entry shows the lesser value of inhibition here, a or b ? Select an item and report its label. a
(a: 20.1%, b: 31.4%)
